Ref: ChEMBL document CHEMBL4373726

- assay-info: Selectivity index, ratio of TC50 for cytotoxicity against dog MDCK cells to IC50 for antiviral activity against Influenza A virus H3N2 infected in dog MDCK cells
- Assay type: toxicity, cell-based
- condition-label: read-out: Selectivity Index
# binarize selectivity ratio: threshold 4 inclusive, high side y, low side n

1) C=C(C(=O)O)[C@@H]1CC[C@H](C)[C@@H]2CC(=O)C(C)=C2C1 [PECHUELOIC ACID]
y
2) C=C(C(=O)Nc1ncc(B(O)O)cn1)[C@@H]1CC[C@H](C)[C@@H]2CC(=O)C(C)=C2C1
n
3) CCOC(=O)C1=C[C@@H](OC(CC)CC)[C@H](NC(C)=O)[C@@H](N)C1 [OSELTAMIVIR]
y
4) NC(=O)c1ncn([C@@H]2O[C@H](CO)[C@@H](O)[C@H]2O)n1 [RIBAVIRIN]
y
5) C=C(C(=O)OC)[C@@H]1CC[C@H](C)[C@H]2C(=C(C)C(=O)[C@H]2NS(C)(=O)=O)C1
y
6) C=C(C(=O)Nc1cccc(B(O)O)c1)[C@@H]1CC[C@H](C)[C@@H]2CC(=O)C(C)=C2C1
y
7) C=C(C(=O)OC)[C@@H]1CC[C@H](C)[C@H]2C(=C(C)C(=O)[C@H]2NC(=O)C(C)CCl)C1 (stereo not given in full)
n
8) C=C(C(=O)OC)[C@@H]1CC[C@H](C)[C@H]2C(=C(C)C(=O)[C@H]2NS(=O)(=O)c2ccc(F)cc2)C1
n
